Measured values drawn from patent US11174268B2 for this set.

target: NaV1.5 (Homo sapiens (Human)); assay: Sodium Influx Assay (Flux), NaV1.5; settings: read-out: Flux NaV1.5 IC50; Trex HEK293 cells, ANG2 dye, inactivated state
Sequence (Q14524 other isoform, or with tags, fused parts or gaps): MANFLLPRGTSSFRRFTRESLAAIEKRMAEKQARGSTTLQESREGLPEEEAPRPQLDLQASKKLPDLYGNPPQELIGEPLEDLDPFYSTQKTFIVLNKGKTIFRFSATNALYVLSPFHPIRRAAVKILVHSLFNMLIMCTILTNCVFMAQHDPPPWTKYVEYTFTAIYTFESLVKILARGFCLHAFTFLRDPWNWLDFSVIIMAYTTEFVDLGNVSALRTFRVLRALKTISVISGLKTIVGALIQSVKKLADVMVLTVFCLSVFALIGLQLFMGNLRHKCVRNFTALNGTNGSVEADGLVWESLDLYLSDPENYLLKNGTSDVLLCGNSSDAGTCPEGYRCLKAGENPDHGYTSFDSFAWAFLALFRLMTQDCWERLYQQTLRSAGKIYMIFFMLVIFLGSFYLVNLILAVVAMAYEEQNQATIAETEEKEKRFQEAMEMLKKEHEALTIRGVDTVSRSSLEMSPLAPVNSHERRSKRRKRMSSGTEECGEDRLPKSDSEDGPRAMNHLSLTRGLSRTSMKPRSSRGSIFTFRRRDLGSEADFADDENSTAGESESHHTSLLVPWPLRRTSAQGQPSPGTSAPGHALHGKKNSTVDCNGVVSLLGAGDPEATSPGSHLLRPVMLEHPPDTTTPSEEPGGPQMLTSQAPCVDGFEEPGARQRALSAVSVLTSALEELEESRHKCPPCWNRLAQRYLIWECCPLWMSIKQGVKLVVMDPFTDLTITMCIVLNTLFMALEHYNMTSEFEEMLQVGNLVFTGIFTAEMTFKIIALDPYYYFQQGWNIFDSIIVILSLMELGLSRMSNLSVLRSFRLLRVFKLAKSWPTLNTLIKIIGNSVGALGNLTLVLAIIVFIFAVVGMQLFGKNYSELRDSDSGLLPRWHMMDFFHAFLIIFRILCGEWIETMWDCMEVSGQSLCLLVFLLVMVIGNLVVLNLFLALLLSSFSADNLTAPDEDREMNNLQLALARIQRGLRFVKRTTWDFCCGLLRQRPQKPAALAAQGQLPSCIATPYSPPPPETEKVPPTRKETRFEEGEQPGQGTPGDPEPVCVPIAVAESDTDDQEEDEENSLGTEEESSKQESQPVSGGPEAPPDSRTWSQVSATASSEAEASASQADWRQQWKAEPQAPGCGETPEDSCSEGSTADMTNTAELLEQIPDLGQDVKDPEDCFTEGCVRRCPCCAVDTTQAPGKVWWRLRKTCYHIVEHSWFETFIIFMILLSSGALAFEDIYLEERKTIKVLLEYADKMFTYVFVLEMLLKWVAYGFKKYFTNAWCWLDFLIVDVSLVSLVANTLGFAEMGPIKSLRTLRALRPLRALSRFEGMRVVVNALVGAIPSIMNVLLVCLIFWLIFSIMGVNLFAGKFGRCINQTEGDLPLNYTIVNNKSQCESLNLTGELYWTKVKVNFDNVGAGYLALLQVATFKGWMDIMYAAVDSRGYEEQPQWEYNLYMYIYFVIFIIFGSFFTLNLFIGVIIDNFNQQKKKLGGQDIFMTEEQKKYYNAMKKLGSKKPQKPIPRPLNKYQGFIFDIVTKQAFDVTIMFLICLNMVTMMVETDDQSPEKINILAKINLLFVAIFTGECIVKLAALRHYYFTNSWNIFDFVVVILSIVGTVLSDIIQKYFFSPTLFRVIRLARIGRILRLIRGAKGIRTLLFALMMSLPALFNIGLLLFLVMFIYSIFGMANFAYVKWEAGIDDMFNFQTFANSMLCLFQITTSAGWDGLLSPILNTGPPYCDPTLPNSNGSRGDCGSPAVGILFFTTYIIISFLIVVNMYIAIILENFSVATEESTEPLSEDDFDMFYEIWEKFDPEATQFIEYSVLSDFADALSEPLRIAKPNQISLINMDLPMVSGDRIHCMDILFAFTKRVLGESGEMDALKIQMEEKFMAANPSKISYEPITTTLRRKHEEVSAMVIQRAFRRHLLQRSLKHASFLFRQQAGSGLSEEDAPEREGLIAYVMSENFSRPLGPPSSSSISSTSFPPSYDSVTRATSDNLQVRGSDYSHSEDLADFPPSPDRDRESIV
pIC50: −log10 of the molar value.
Please note: true (1) applies when pIC50 is 5 or greater, and false (0) applies otherwise.

C[C@H](Nc1cc(F)c(S(=O)(=O)Nc2nccs2)cc1Cl)c1ccccc1F [Example 45]    true (1)
O=S(=O)(Nc1cscn1)c1c(F)cc(N[C@@H]2C[C@H](N3CCC3)c3ccccc32)cc1F [Example 289]    false (0)
C[C@H](Nc1ccc(S(=O)(=O)Nc2cscn2)cc1C#N)c1ccccc1F [Example 239]    false (0)
CN(Cc1c(F)ccc(F)c1CN1CCC1)c1cc(F)c(S(=O)(=O)Nc2cscn2)c(F)c1 [Example 284, 2,2,2-trifluoroacetate]    false (0)
C[C@H](Nc1cc(F)c(S(=O)(=O)Nc2nccs2)cc1Cl)c1ccccc1Cl [Example 78]    true (1)
C[C@H](Nc1cc(F)c(S(=O)(=O)Nc2ncco2)cc1Cl)c1cc(F)ccc1F [Example 287]    false (0)
CCC(Nc1ccc(S(=O)(=O)Nc2nccs2)cc1Cl)c1ccccn1 (stereo not shown) [Example 81]    false (0)
Cc1cc(N[C@@H](C)c2ccccc2F)c(Cl)cc1S(=O)(=O)Nc1nccs1 [Example 269]    true (1)
O=S(=O)(Nc1cscn1)c1cc(Cl)c(NCc2c(F)cccc2CN2CCC(F)(F)CC2)cc1F [Example 251]    true (1)
O=S(=O)(Nc1cscn1)c1c(F)cc(NCc2c(Cl)ccc(F)c2CN2CCC2)cc1F [Example 309, 2,2,2-trifluoroacetate]    false (0)
O=S(=O)(Nc1cscn1)c1c(F)cc(NCc2c(F)cccc2CN2CCC2)cc1F [Example 302, 2,2,2-trifluoroacetate]    false (0)
C[C@H](Nc1cc(F)c(S(=O)(=O)Nc2nccs2)cc1Cl)c1cc(Cl)cc(Cl)c1 [Example 51]    false (0)
C[C@H](Nc1cc(F)c(S(=O)(=O)Nc2cscn2)cc1Cl)c1cccc(Cl)c1F [Example 6]    true (1)
CC[C@@H](Nc1ccc(S(=O)(=O)Nc2ncns2)cc1Cl)c1ccccc1 [Example 31]    false (0)
